I'd be grateful if you could share measured AC50 for these entries.
- TEST_SYSTEM: Progesterone receptor (Homo sapiens); also: assay procedure not described here
- Sequence (P06401 whole entry): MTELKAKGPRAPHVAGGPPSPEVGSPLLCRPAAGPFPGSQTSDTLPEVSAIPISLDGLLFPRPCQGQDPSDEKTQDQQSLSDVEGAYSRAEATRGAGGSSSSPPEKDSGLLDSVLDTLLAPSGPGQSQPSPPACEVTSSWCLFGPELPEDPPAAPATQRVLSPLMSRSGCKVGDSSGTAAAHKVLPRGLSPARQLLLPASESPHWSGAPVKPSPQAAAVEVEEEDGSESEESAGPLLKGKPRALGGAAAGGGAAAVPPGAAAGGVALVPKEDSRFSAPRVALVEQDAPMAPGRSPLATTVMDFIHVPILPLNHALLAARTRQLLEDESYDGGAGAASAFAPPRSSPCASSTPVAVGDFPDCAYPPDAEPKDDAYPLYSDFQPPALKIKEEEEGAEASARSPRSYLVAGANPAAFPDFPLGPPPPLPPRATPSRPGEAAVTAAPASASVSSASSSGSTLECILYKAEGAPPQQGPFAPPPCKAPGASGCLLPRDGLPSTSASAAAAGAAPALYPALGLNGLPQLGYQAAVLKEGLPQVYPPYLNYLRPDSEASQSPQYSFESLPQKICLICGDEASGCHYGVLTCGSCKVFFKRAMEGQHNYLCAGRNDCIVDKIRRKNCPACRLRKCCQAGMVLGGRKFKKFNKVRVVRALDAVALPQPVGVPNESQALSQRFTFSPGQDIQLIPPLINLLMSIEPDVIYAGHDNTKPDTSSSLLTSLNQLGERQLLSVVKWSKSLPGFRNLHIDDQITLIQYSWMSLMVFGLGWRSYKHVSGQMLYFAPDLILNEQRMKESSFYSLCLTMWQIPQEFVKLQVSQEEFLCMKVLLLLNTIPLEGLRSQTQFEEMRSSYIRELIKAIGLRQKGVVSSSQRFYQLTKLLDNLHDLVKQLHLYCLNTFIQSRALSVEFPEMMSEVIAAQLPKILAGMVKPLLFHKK
- Assay type: functional

Would you please look over these solved cases?
{"columns": ["COMPOUND", "AC50"],
 "data": [
  ["O=C1c2cccc3c2[C@H](CCC3)CN1[C@@H]1CN2CCC1CC2", "> 30 µM"],
  ["CC(C)[C@@H](C)/C=C/[C@@H](C)[C@H]1CC[C@H]2/C(=C/C=C3\\C[C@@H](O)CC[C@@H]3C)CCC[C@]12C [DIHYDROTACHYSTEROL]", "> 30 µM"]
]}

I'm hoping you can list AC50 for every compound here, please.
1. Cc1nnc(SCC2=C(C(=O)O)N3C(=O)[C@@H](NC(=O)Cn4cnnn4)[C@H]3SC2)s1
2. O=C(CCCN1CCC(O)(c2ccc(Br)cc2)CC1)c1ccc(F)cc1
3. S=P(N1CC1)(N1CC1)N1CC1

# output
> 300 µM
> 30 µM
> 30 µM

* * *

- TEST_SYSTEM: UniProt:P25021
- Sequence (P25021 whole entry): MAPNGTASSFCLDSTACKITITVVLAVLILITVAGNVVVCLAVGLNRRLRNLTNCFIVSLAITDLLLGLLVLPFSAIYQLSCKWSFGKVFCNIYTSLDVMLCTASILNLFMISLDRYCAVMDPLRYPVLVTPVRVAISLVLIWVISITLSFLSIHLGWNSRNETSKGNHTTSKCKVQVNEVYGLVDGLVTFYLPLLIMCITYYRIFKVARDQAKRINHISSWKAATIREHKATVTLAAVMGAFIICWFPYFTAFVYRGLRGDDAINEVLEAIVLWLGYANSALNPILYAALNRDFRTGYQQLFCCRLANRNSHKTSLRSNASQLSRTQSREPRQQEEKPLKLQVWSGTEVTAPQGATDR
- Type: functional, cell-based
I'd be grateful if you could share measured AC50 for these entries.

Would you please look over these solved cases?
{"columns": ["COMPOUND", "TEST_SYSTEM", "RESULT"],
 "data": [
  ["O=C(O)CCNC(=O)c1ccc(/N=N/c2ccc(O)c(C(=O)O)c2)cc1 [BALSALAZIDE]", "UniProt:P25021", "> 30 µM"],
  ["O=C(O)c1ccc(NC(=O)[C@H](Cc2ccc(O)cc2)NC(=O)c2ccccc2)cc1 [BENTIROMIDE]", "UniProt:P25021", "> 10 µM"],
  ["C[C@]12C=CC(=O)C=C1CC[C@@H]1[C@@H]2CC[C@]2(C)OC(=O)CC[C@@H]12", "UniProt:P25021", "> 10 µM"],
  ["CC(C)[C@@H](C)/C=C/[C@@H](C)[C@H]1CC[C@H]2/C(=C/C=C3\\C[C@@H](O)CC[C@@H]3C)CCC[C@]12C [DIHYDROTACHYSTEROL]", "UniProt:P25021", "> 10 µM"],
  ["CNC(=C[N+](=O)[O-])NCCSCc1csc(CN(C)C)n1", "UniProt:P25021", "> 10 µM"],
  ["CN1CCN=C(c2ccccc2)c2cc(Cl)ccc21", "UniProt:P25021", "> 30 µM"]
]}

I'm hoping you can list AC50 for every compound here, please.
1. CO/N=C(\C(=O)N[C@@H]1C(=O)N2C(C(=O)O)=CCS[C@H]12)c1csc(N)n1
2. CC1=C(/C=C/C(C)=C/C=C/C(C)=C/CO)C(C)(C)CCC1

# output
["> 30 µM", "> 10 µM"]

* * *

- TEST_SYSTEM: Amine oxidase [flavin-containing] A (Homo sapiens, UniProt P21397); also: assay procedure not described here
- Sequence (P21397 whole entry): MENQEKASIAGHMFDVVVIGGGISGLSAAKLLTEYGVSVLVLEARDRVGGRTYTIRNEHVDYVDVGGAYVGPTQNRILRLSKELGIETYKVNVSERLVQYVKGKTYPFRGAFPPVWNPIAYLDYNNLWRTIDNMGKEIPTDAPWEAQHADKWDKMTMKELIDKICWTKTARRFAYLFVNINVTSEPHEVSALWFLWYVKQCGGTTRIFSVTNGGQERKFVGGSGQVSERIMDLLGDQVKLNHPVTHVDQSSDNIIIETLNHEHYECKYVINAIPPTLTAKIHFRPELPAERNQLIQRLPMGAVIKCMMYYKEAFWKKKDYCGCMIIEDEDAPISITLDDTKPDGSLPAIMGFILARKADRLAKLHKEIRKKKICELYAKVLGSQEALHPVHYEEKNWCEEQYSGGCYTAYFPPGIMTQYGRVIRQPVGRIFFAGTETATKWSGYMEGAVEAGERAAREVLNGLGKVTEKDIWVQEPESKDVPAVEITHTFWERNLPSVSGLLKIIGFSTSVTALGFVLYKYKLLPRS
- Format: functional
I'd be grateful if you could share measured AC50 for these entries.

I'm hoping you can list AC50 for every molecule here, please.
1. CO/N=C(\C(=O)N[C@@H]1C(=O)N2C(C(=O)O)=C(CSc3nc(=O)c(=O)[nH]n3C)CS[C@H]12)c1csc(N)n1
2. COC(=O)[C@H]1[C@H]2C[C@@H]3c4[nH]c5cc(OC)ccc5c4CCN3C[C@H]2C[C@@H](OC(=O)c2cc(OC)c(OC)c(OC)c2)[C@@H]1OC
3. O=C(c1cc(Cc2n[nH]c(=O)c3ccccc23)ccc1F)N1CCN(C(=O)C2CC2)CC1
4. O=c1c(O)c(-c2ccc(O)c(O)c2)oc2cc(O)cc(O)c12

# output
> 30 µM
> 30 µM
> 10 µM
5.6 µM

I'm hoping you can list AC50 for every molecule here, please.
1. OC[C@H]1O[C@@H](Oc2cc(O)cc(/C=C/c3ccc(O)cc3)c2)[C@H](O)[C@@H](O)[C@@H]1O
2. COc1cc(N)c(Cl)cc1C(=O)NC1CCN(CCCOc2ccc(F)cc2)CC1OC (stereo unspecified) [CISAPRIDE]
3. CC(C)NC(=N)NC(=N)Nc1ccc(Cl)c(Cl)c1
4. COc1cc(C)c(/C=C/C(C)=C/C=C/C(C)=C/C(=O)O)c(C)c1C

# output
> 30 µM
> 10 µM
> 30 µM
> 10 µM

Taken from ChEMBL document CHEMBL5291721.
